Source listed as patent US11993574B2.

- Test system: IL-17A
- method notes: IL-17 release from differentiated primary human T-cells (IL-17A HTRF assay)
- Assay type: cell-based
- recorded conditions: primary human CD4+ T cells differentiated into Th17 cells, 45-hour incubation, IL-17A in supernatant; read-out: hIL17 IC50
observable: IC50 (nM)

CC(C)c1ccc(-c2nc3c(n2C(C)C)CC[C@@H]2[C@@H](C)C(=O)C(C#N)=C[C@@]32C)cc1 [T162] ... 137

I. C[C@H]1C(=O)C(C#N)=C[C@@]2(C)c3nc(-c4ccc(-c5ccccc5)cc4)n(-c4cccnc4)c3CC[C@H]12 [T152]
II. C[C@H]1C(=O)C(C#N)=C[C@@]2(C)c3c(c(-c4ccncc4)nn3-c3ccc(-c4cncc(F)c4)cc3)CC[C@H]12 [T101]
III. C[C@H]1C(=O)C(C#N)=C[C@@]2(C)c3nn(Cc4ccccc4)c(-c4ccccc4)c3CC[C@H]12 [T4]
# input Sort entries by IC50 from minimum to maximum value. Respond with the label ranking, as requested.
# output II, I, III
(II: 51 nM, I: 131 nM, III: 223 nM)

* * *

- experimental target: Human RAR-related Orphan Receptor Gamma (RORγ) (Homo sapiens, UniProt P51449)
- Sequence (P51449 269-508 limits assumed): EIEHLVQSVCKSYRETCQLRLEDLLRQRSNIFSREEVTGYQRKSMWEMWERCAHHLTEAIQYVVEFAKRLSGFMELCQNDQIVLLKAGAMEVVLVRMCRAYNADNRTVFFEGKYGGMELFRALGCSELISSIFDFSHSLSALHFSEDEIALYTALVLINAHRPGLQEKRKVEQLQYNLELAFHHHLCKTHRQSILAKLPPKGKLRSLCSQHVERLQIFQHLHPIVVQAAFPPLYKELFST
- method notes: RORγ assay (GAL4-RORγ hybrid luciferase reporter, Indigo Biosciences)
- recorded conditions: inverse-agonist activity, GAL4-RORγ reporter cells, 23 hours
- Experimental: B. RORγ Assay and Cell Viability The RORγ assay system was purchased from Indigo Biosciences. […] The GAL4-RORγ hybrid is constitutively active; therefore, the principle application of this reporter assay system is to screen test compounds to quantify inverse-agonist activities against human RORγ. […] After this incubation, luciferin was added to the wells and luciferase activity was determined by measuring the luminescence signal using a BMG Pherastar microplate reader. […]
pIC50: −log10 of the molar value.
observable: pIC50

Sample answers from the record:
C[C@H]1C(=O)C(C#N)=C[C@@]2(C)c3c(c(-c4ccccc4F)nn3-c3ccc(-c4ccccc4)cc3)CC[C@H]12 ... 7.24
C[C@H]1C(=O)C(C#N)=C[C@@]2(C)c3c(c(-c4ccccc4)nn3-c3ccc(-c4ccncc4)cc3)CC[C@H]12 ... 7.60

P. CC(C)c1ccc(-c2nc3c(n2Cc2ccc(F)cc2)CC[C@@H]2[C@@H](C)C(=O)C(C#N)=C[C@@]32C)cc1
Q. Cc1nc(-c2ccc(-n3nc(-c4ccccc4F)c4c3[C@]3(C)C=C(C#N)C(=O)[C@H](C)[C@H]3CC4)cc2)no1
R. C[C@H]1C(=O)C(C#N)=C[C@@]2(C)c3c(c(-c4ccccc4F)nn3-c3ccc(-c4ccncc4)cc3)CC[C@H]12
S. C[C@H]1C(=O)C(C#N)=C[C@@]2(C)c3c(c(-c4ccccc4)nn3Cc3ccccc3)CC[C@H]12
# input Sort entries by pIC50 from minimum to maximum value. Respond with the label ranking, as requested.
# output P, S, Q, R

* * *

- experimental target: Human RAR-related Orphan Receptor Gamma (RORγ) (Homo sapiens, UniProt P51449)
- method notes: RORγ assay (GAL4-RORγ hybrid luciferase reporter, Indigo Biosciences)
- recorded conditions: inverse-agonist activity, GAL4-RORγ reporter cells, 23 hours
observable: IC50 (nM)

Sample answers from the record:
C[C@H]1C(=O)C(C#N)=C[C@@]2(C)c3nc(-c4ccccc4)n(-c4cccc(F)c4)c3CC[C@H]12 [T134] ... 143
C[C@H]1C(=O)C(C#N)=C[C@@]2(C)c3nc(-c4ccc(-c5ccccc5)cc4)n(-c4cccc(F)c4)c3CC[C@H]12 [T127] ... 267

a. C[C@H]1C(=O)C(C#N)=C[C@@]2(C)c3c(c(-c4ccccc4)nn3-c3ccc(-c4ccc(CO)cc4)cc3)CC[C@H]12 [T42]
b. Cc1cc(-c2ccc(-n3nc(-c4ccncn4)c4c3[C@]3(C)C=C(C#N)C(=O)[C@H](C)[C@H]3CC4)cc2)cnn1 [T176]
# input Which of the two gives a bigger number for IC50: a or b ? Pick one and reply with its label.
# output b
